# Subject Of Test: biotinylated unmodified histone H3 peptide
# Protocol Summary: pull-down + far-Western, overlay or dot blot
Measure: Kd (nM)

- GST tagged recombinant chromodomain (PfCD) of the chromodomain-containing protein PfCDP, wild type (domain or fragment) NEVFEVEKIIMARYKLNCKRKKNRKDENLDDFEFYIKWKNYDSDENTWEPFENLSPNLKGQARKVAL: 175

Entry source: paper doi:10.1101/2021.09.13.460021
